- System: G protein of RSV B/18537 (ATCC Cat. No. VR-1580), on virus (Respiratory syncytial virus B/18537)
- Protocol notes: cell-based or functional assay
Can you tell me Neutralization IC50 (ng/mL), plaque reduction assay, RSV B/18537 for the items I'm about to list?
Answers are plain numbers, in ng/mL.

Take a look at these entries with their results.
CB028.1 (antibody, V domains shown, Tested as human IgG from the pCP9-kappa vector) VH: QVQLVQSGAEVKKPGASVQVSCKTSGYTFSSYGISWVRQAPGQGPEWMGWISTHIGTTNYAQKLQGRVTMTTDTSTTTAYMELRSLRSDDTAVYYCARDLAKWYCSGDTCFCSGGRCYSDHWGQGTLVTVSS VL: DIQMTQSPSSLSASVGDRVTITCRASQSINDCLNWYQQKPGQAPKLLISAASNLQSGVPSRFSGSGSETDFTLTISSLQPEDFAAYYCQQSFSTPLTFGGGTKVEIK: 16.3
CB079.1 (antibody, V domains shown, Tested as human IgG from the pCP9-kappa vector) VH: EVQLVESGGDLVQPGGSLRLSCSASGFVFTSYSFHWVRQAPGKGLEYVSSVSADGGSTYYADSVRGRFLISRDNSKNTLSLQMSSLRPDDTALYYCVPQPSLLWFGDLRSWGQGTLVTVSS VL: DIVMTQSPLSLPVTPGEPASISCRSSQSLLHSNGYNYLDWYLQKPGQSPQLLIYLSSNRASGVPDRFSGSGSGTDFTLKISRVEAEDIGIYYCMQSLQTLTFGQGTRLEIK: 4.4
CB072.1L (antibody, V domains shown, Tested as human IgG from the pCP9-lambda vector; also called CB072.IL) VH: QLQLQESGPGLVKPSETLSLTCTVSGGSISSNIHYWAWIRQTPGKGLEWIGYMFYGGVAFYNPSLKSRVAISVDTSKNQFSLRLTSASAADTAVYYCARVLVASTNWFDPWGQGTLVTVSS VL: SYVLTQPPSVSVAPGGTARITCGGDNIGTKGVHWYQQKPGQAPVLVMYYNSDRPTGVPERFSGSNSGNTATLTISRLEAGDEADYYCHVWDSSGSDHVEVFGGGTKLTVL: 2.7
CB071.1L (antibody, V domains shown, Tested as human IgG from the pCP9-lambda vector) VH: QVQLVQSGAEVKKPGSSVRVSCKASGGTFSRYVITWVRQAPGQGLEWMGGSIPIIDTSTYAQKFQDRVTITADKSTSTVYLELSSLRPEDTAIYYCAKVFFFSNSSGPPTEGPAFDVWGQGTMVTVSS VL: SYELTQPPSVSVSPGQTASITCSGHELGDKYVSWYQQKPGQSPVLLIYQDTNRPAGIPERFSGSNSGSTAFLTISATQAMDEADYYCQAWDNSHVVFGGGTKLTVL: 5.4

Okay, next one:
Input: Give the measured Neutralization IC50 (ng/mL), plaque reduction assay, RSV B/18537 of CB017.3L (antibody, V domains shown, Tested as human IgG expressed in 293-F cells from the pCP9-lambda vector) VH: QVQLVESGGGVVQPGGSLRLSCEASGFMFSVYAIHWVRQAPGKGLEWVAVIWHDGSNKYYADSVKGRFTISRDNSKDTMYLQMKTLRVDDTAVYYCARDPIVGSKTDGMDVWGQGTTVTVSS VL: SYELTQPPSVSVSPGQTARITCSGDALADQYAYWYQQKPGQAPVMVIFKDNERPSGIPERFSGSSSGTTVTLTVSGVQSEDEADYYCQSVDSSGTYWMFGGGTKLTVL .
Output: 2
